# assayed.target: uPAR (Homo sapiens)
# Construct: Recombinant human uPAR^1–283 was expressed; made in house; host or cells: Drosophila melanogaster S2 cells
# Sequence (Q03405 23-305): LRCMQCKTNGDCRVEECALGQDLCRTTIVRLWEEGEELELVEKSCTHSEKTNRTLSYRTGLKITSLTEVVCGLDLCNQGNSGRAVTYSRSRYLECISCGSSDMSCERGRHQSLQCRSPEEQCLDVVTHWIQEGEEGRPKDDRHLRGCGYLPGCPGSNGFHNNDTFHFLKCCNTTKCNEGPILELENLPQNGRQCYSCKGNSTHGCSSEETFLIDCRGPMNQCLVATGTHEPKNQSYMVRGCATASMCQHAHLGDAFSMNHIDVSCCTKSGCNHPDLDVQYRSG
# procedure.text: SPR real-time binding kinetics, peptides in solution and immobilised uPAR
# measurement.setup: [63Cu]-DOTA labelled peptides, single-cycle SPR
# Protocol: The real-time binding kinetics of uPAR•peptide interactions were measured with SPR using a Biacore T200™(Cytiva); essentially as described in[56],[77]. […] The binding kinetics for the peptides to immobilised uPAR were measured using a single cycle protocol. […] The kinetic rate constants (kon and koff) were determined by non-linear regression fitting of the curves to the simple bimolecular interaction model (BiacoreT200 Evaluation™ 3.0 software).
Positions of bridges follow the written chain, without caps; N, C: chain ends. Non-standard residues stand in square brackets, D forms with d. Residues, ends and D or L forms follow the SMILES beside them. *: point of attachment. DOTA = O=C(O)CN1CCN(CC(=O)O)CCN(CC(=O)*)CCN(CC(=O)O)CC1; Cha = N[C@@H](CC1CCCCC1)C(=O)O
Here, each record is paired with measured pKd data.
Hey, just a heads up that pKd is the negative log base 10 of the concentration in molar.

Consider the worked cases shown below.
compound	assayed.target	pKd
CC(C)C[C@H](NC(=O)[C@H](Cc1ccc(O)cc1)NC(=O)[C@@H](CCCNC(=N)N)NC(=O)[C@@H](CO)NC(=O)[C@H](Cc1ccccc1)NC(=O)[C@H](CC1CCCCC1)NC(=O)[C@H](CC(=O)O)NC(=O)CN1CCN(CC(=O)O)CCN(CC(=O)O)CCN(CC(=O)O)CC1)C(=O)N[C@@H](Cc1c[nH]c2ccccc12)C(=O)N[C@@H](CO)C(=O)O	uPAR (Homo sapiens)	7.06
CC(C)C[C@H](NC(=O)[C@H](Cc1ccc(O)cc1)NC(=O)[C@@H](CCCNC(=N)N)NC(=O)[C@@H](CO)NC(=O)[C@H](Cc1ccccc1)NC(=O)[C@H](CC1CCCCC1)NC(=O)[C@H](CC(=O)O)NC(=O)CN1CCN(CC(=O)O)CCN(CC(=O)O)CCN(CC(=O)O)CC1)C(=O)N[C@@H](Cc1c[nH]c2ccccc12)C(=O)N[C@@H](CO)C(N)=O	uPAR (Homo sapiens)	7.86
CC(C)C[C@@H]1NC(=O)[C@H](Cc2ccc(O)cc2)NC(=O)[C@H](NC(=O)[C@@H](CO)NC(=O)[C@H](Cc2ccccc2)NC(=O)[C@H](CC2CCCCC2)NC(=O)[C@H](CC(=O)O)NC(=O)CNC(=O)CNC(=O)[C@@H](CO)NC(=O)CNC(=O)[C@H](CCC(=O)O)NC(=O)[C@H](CCC(=O)O)NC(=O)CN2CCN(CC(=O)O)CCN(CC(=O)O)CCN(CC(=O)O)CC2)CSSC[C@@H](C(N)=O)NC(=O)[C@H](Cc2c[nH]c3ccccc23)NC1=O [11b] ({DOTA}-EEG[dS]GGD[Cha]F[dS][dC]YLWC-NH2; disulfide 11-15)	uPAR (Homo sapiens)	7.65

Test item CC(C)C[C@@H]1NC(=O)[C@H](Cc2ccc(O)cc2)NC(=O)[C@H](NC(=O)[C@@H](CO)NC(=O)[C@H](Cc2ccccc2)NC(=O)[C@H](CC2CCCCC2)NC(=O)[C@H](CC(=O)O)NC(=O)CN2CCN(CC(=O)O)CCN(CC(=O)O)CCN(CC(=O)O)CC2)CSSC[C@@H](C(N)=O)NC(=O)[C@H](Cc2c[nH]c3ccccc23)NC1=O [9b] ({DOTA}-D[Cha]F[dS][dC]YLWC-NH2; disulfide 5-9) ; uPAR (Homo sapiens); reported pKd was 7.66
